Measured IC90 by item
# System: Plasmodium berghei
# method: Luciferase/luciferin-expressing antifolate-resistant parasites were used to infect a culture of HepG2 cells that were pre-incubated with compounds. Infected hepatocytes emit light due to the luciferase reaction. Assay results are presented as the percent inhibition of light emission compared to control. […]
# Assay type: functional
# condition.set: sporozoite, read-out: LUCIFERASE INFECTION ASSAY - IC90
recorded.metric: IC90

>>> value_reported("CCCCCC1/C(=N\\O)CC(c2ccccc2)N(C)C1c1ccccc1 (stereo unspecified)")
"> 9.42 µM"
>>> value_reported("COc1cc(/C=C2\\COc3c(Cl)cc(Cl)cc3C2=O)cc(OC)c1O")
"7.17 µM"
>>> value_reported("CC(C)n1ncc2cc(C(=O)Nc3nc4c(s3)CCCC4)cnc21")
"0.68 µM"
>>> value_reported("CNc1nc(NCc2ccc(C)cc2C)c2sccc2n1")
"> 11.1 µM"
>>> value_reported("COc1cccc(/C=N/NC(=O)C2CCCN(C(=S)NNC3CC4C=CC3C4)CC2)c1O (stereo unspecified)")
"> 7.21 µM"
>>> value_reported("Cc1cc2oc(=O)cc(CN3CCC(c4c[nH]c5ccccc45)CC3)c2cc1C")
"> 10 µM"

----------
# Tested on: Plasmodium berghei
# method: Luciferase/luciferin-expressing antifolate-resistant parasites were used to infect a culture of HepG2 cells that were pre-incubated with compounds. Infected hepatocytes emit light due to the luciferase reaction. Assay results are presented as the percent inhibition of light emission compared to control. […]
# Format: functional
# condition.set: sporozoite, read-out: LUCIFERASE INFECTION ASSAY - IC50
The compounds listed here are annotated with their IC50.
recorded.metric: IC50

>>> value_reported("Cc1ccc(-c2csc(NC(=O)CSc3nc4ccccc4c(=O)n3CCCN(C)C)n2)cc1")
"> 10 µM"
>>> value_reported("CC(C)(C(=O)Nc1ccon1)n1cc(-c2ccc(OCCN3CCCC3)cc2)cn1")
"> 10 µM"
>>> value_reported("Cc1ccc(C)c(Sc2ccc(S(=O)(=O)NCCN(C)C)cc2)c1")
"> 10 µM"
>>> value_reported("Cc1ccc(Sc2ncccc2C(=O)Nc2nc3c(s2)CCCC3)cc1")
"3.38 µM"

----------
# Test system: Plasmodium berghei
# method: Luciferase/luciferin-expressing antifolate-resistant parasites were used to infect a culture of HepG2 cells that were pre-incubated with compounds. Infected hepatocytes emit light due to the luciferase reaction. Assay results are presented as the percent inhibition of light emission compared to control. […]
# Type: functional
# condition.set: sporozoite, read-out: LUCIFERASE INFECTION ASSAY - IC50
recorded.metric: IC50

>>> value_reported("Cc1cc(C)c(C(=O)OCCC(NS(=O)(=O)c2ccc(Cl)cc2)c2ccccc2)c(C)c1 (configuration not stated)")
"> 10 µM"
>>> value_reported("CCCNC(=O)c1c(NC(=O)c2cccc(Cl)c2Cl)nc2ccc(C)cn12")
"> 8.14 µM"
>>> value_reported("CCN(CC)c1ccc(NC(=O)c2c(-c3c(Cl)cccc3Cl)noc2C)c(N(CC)CC)n1")
"> 6.73 µM"
>>> value_reported("COCCN(Cc1nnc(-c2cccs2)o1)C(=O)c1cc(C2CC2)nc2c1cnn2C(C)C")
"> 10 µM"
>>> value_reported("Cc1csc(Sc2ncnc3c2cnn3C)n1")
"> 2 µM"
>>> value_reported("CCc1ccc(CN(C)C(C)C(=O)Nc2cc(S(=O)(=O)N(C)C)ccc2C)cc1 (configuration not stated)")
"8.31 µM"
>>> value_reported("c1ccc(-c2csc3ncnc(Sc4nnc(C5COc6ccccc6O5)n4-c4ccccc4)c23)cc1 (configuration not stated)")
"> 10 µM"
